test system: MKN1 cells; experiment: Inhibition of KRas-mediated phosphorylation of ERK (Cisbio HTRF pERK), MKN1 cells; format: cell-based; conditions: Homo sapiens, MKN-1, 3 hour compound incubation, Cisbio pERK HTRF
I'd be grateful if you could share measured IC50 for these entries.
Provide only the numeric value, understood in nM.

Reported IC50 of CCc1c(F)ccc2cc(O)cc(N3CCc4c(nc(OC[C@@]56CCCN5C[C@H](F)C6)nc4N4C[C@H]5C[C@@H](C4)C(=O)NC5=O)C3)c12 : 19.9

IC50 reported for this compound CCc1c(F)ccc2cc(O)cc(N3CCc4c(nc(OC[C@@]56CCCN5C[C@H](F)C6)nc4NCC4CC(=O)NC4=O)C3)c12 (stereo partly drawn) : 28.4

Lab note: CCc1c(F)ccc2cc(O)cc(N3CCc4c(nc(OC[C@@]56CCCN5C[C@H](F)C6)nc4N4CCCSCC4)C3)c12 gave IC50 of 29.3

Entry CCc1c(F)ccc2cc(O)cc(N3CCc4c(nc(OC[C@@]56CCCN5C[C@H](F)C6)nc4N4CCCn5nc(C(=O)N(C)C6CC6)cc5C4)C3)c12 , IC50 reported as 7.8

Looking up CCc1c(F)ccc2cc(O)cc(N3CCc4c(nc(OC[C@@]56CCCN5C[C@H](F)C6)nc4N4CCCC5(CC(=O)NC5=O)C4)C3)c12 (stereo partly drawn) , I see its IC50 listed as 6

Noted for CCc1c(F)ccc2cc(O)cc(N3CCc4c(nc(OC[C@@]56CCCN5C[C@H](F)C6)nc4N4CCCn5nc(C(=O)NCCOCCOC)cc5C4)C3)c12 : its IC50 reads 13.5

====

system: H358 cells; assay: Inhibition of KRas-mediated phosphorylation of ERK (Cisbio HTRF pERK), H358 cells; type: cell-based; settings: Homo sapiens, NCI-H358, single point at 100 nM, 3 hrs compound incubation
For each entry below, report its inhibition at 0.1 µM value.
Record the value in %, omitting the unit from your answer.

# compound Cc1cc2[nH]ncc2c(N2CCc3c(nc(OCC4(CN(C)C)CC4)nc3N3CCC[C@]4(C3)NC(=O)NC4=O)C2)c1C [Example 462] ; its inhibition at 0.1 µM = 1

The reported value for CCc1c(F)ccc2cc(O)cc(N3CCc4c(nc(OC[C@@]56CCCN5C[C@H](F)C6)nc4N4CCCn5nc(C(=O)N6CC7CCC(C6)N7)cc5C4)C3)c12 [Example 265] in terms of inhibition at 0.1 µM is 60

Note to self: inhibition at 0.1 µM recorded for CCCCN(C)C(=O)c1cc2n(n1)CCCN(c1nc(OC[C@@]34CCCN3C[C@H](F)C4)nc3c1CCN(c1cc(O)cc4ccc(F)c(CC)c14)C3)C2 [Example 496] was 97

Noted for CCNC(=O)c1nn2c(c1Cl)CN(c1nc(OC[C@@]34CCCN3C[C@H](F)C4)nc3c1CCN(c1cc(O)cc4ccc(F)c(CC)c14)C3)CCC2 [Example 367] : its inhibition at 0.1 µM reads 101

// recorded inhibition at 0.1 µM for CCc1c(F)ccc2cc(O)cc(N3CCc4c(nc(OC[C@@]56CCCN5C[C@H](F)C6)nc4N4CCCn5nc(C(=O)N(C)C)c(COC)c5C4)C3)c12 [Example 269] : 100

According to the records, this compound CCc1c(F)ccc2cc(O)cc(N3CCc4c(nc(OC[C@@]56CCCN5C[C@H](F)C6)nc4N4CCCn5nc(C(=O)N(C)C(C)C)cc5C4)C3)c12 [Example 381] displays inhibition at 0.1 µM of 98

====

biological target: KRas G12A (Homo sapiens, UniProt P01116, G12A); format: binding; conditions: TR-FRET displacement, read-out: Binding to KRas (IC50 nM) G12A
Sequence (P01116 1-169 isoform P01116-2 G12A): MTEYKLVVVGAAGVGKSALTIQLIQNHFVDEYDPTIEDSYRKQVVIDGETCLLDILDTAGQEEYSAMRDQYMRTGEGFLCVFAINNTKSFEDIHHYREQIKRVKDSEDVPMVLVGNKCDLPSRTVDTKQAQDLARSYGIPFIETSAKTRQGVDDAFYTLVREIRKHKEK
Quantity: IC50

Recorded IC50 (compound CCc1cccc2cccc(N3CCc4c(nc(OCC5(CN(C)C)CC5)nc4N4CCn5nncc5C4)C3)c12 ): 83100 nM

Value of IC50 reported for the compound Oc1cc(Cl)c(C2CC2)c(N2CCc3c(nc(OCC45CCCN4CCC5)nc3N3CC4CC(O)C(C4)C3)C2)c1 (stereo not shown) is 52 nM

Form field IC50, entry CCc1cccc2cccc(N3CCc4c(nc(OCC5(CN(C)C)CC5)nc4N4CCN(C(=O)c5c[nH]c(=O)[nH]5)CC4)C3)c12 : 4690 nM

Quick note, IC50 for CCc1cccc2cccc(N3CCc4c(nc(OCC5(CN(C)C)CC5)nc4NCc4nc(C5CC5)n[nH]4)C3)c12 landed at 17300 nM

GET /value?item= CCc1cccc2cccc(N3CCc4c(nc(OCC5(CN(C)C)CC5)nc4NCCc4nnc(N)o4)C3)c12 &field=IC50 returns 10200 nM

The reported IC50 of the compound CCc1cccc2cccc(N3CCc4c(nc(OCC5(CN(C)C)CC5)nc4N4CCCC(n5ccc(C)n5)C4)C3)c12 (stereo not shown) was 2980 nM

Looking up Cc1cc2[nH]ncc2c(N2CCc3c(nc(OC[C@@]45CCCN4C[C@H](F)C5)nc3N3CCC[C@]4(C3)NC(=O)NC4=O)C2)c1C , I found its IC50 recorded as 8 nM

====

test system: HCT116 cells; assay: Inhibition of KRas-mediated phosphorylation of ERK (Cisbio HTRF pERK), HCT116 cells; assay type: cell-based; details: Homo sapiens, HCT-116, 3 h, 3 hr compound incubation
Quantity: IC50 (nM)
Quick reminder: number only, in nM, skip the unit.

In plain terms, C=C1CN2CCCC2(COc2nc3c(c(N4CCCC5(CCO5)C4)n2)CCN(c2cc(O)cc4ccc(F)c(CC)c24)C3)C1 (stereo not shown) has a documented IC50 of 253

Entry C[C@@]1(O)CCCN(c2nc(OC[C@@]34CCCN3C[C@H](F)C4)nc3c2CCN(c2ccc(F)c4sc(N)c(C#N)c24)C3)C1 — recorded IC50 = 7220

Record C[C@@H]1C[C@@H]1c1c(Cl)cc(O)cc1N1CCc2c(nc(OC[C@@]34CCCN3C[C@H](F)C4)nc2N2CCCn3nc(C(=O)N(C)C)cc3C2)C1 (stereo in doubt) , field IC50: 1220

Form field IC50, entry CCc1c(F)ccc2cc(O)cc(N3CCc4c(nc(OC[C@@]56CCCN5C[C@H](F)C6)nc4N4CCCn5nc(C(=O)N6CC[C@H]7CC[C@@H]6C7)cc5C4)C3)c12 : 115

====

biological target: KRas G12V (Homo sapiens, UniProt P01116, G12V); experiment: biochemical; conditions: Binding to KRas (IC50 nM) G12V, TR-FRET displacement, KRas G12V
Sequence (P01116 1-169 isoform P01116-2 G12V): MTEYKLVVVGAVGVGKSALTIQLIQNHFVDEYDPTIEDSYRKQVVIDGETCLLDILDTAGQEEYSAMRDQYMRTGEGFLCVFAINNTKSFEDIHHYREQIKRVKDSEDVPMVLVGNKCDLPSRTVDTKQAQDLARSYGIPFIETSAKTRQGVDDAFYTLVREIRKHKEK
Lab note: compare IC50 with 20 nM, writing Satisfied if less and Not satisfied if equal or more.

Decide: IC50 of CCc1c(F)ccc2cc(O)cc(N3CCc4c(nc(OC[C@@]56CCCN5C[C@H](F)C6)nc4N4CCCn5nc(C(=O)NC)c(OC)c5C4)C3)c12 [Example 320] strictly below 20 nM?
Satisfied

Record CCc1c(F)ccc2cc(O)cc(N3CCc4c(nc(OC[C@@]56CCCN5C[C@H](F)C6)nc4N4CCCn5nc(C(=O)NC)c(C)c5C4)C3)c12 [Example 380] : is its IC50 strictly below 20 nM?
Satisfied

hey, is IC50 for CCc1c(F)ccc2cc(O)cc(N3CCc4c(nc(OC[C@@]56CCCN5C[C@H](F)C6)nc4N4CCCn5nc(N(C)S(N)(=O)=O)cc5C4)C3)c12 [Example 291] lower than 20 nM or not?
Not satisfied

Is the reported IC50 for CCc1cccc2cccc(N3CCc4c(nc(OCC5(CN(C)C)CC5)nc4NCCc4nnc(N)o4)C3)c12 [Example 671] strictly below 20 nM?
Not satisfied

Please check: IC50 for CCc1c(F)ccc2cc(O)cc(N3CCc4c(nc(OC[C@@]56CCCN5C[C@H](F)C6)nc4N4CCCn5nc(C(=O)N6CC7COCC6C7)cc5C4)C3)c12 (stereo partly drawn) [Example 306] , strictly under 20 nM or not?
Satisfied

IC50 strictly < 20 nM for this molecule? O=C1NC(=O)C2CN(c3nc(OCC45CCCN4CCC5)nc4c3CCN(c3cc(O)cc(Cl)c3C3CC3)C4)CC12 (stereo not drawn) [Example 445]
Satisfied

Record CCc1cccc2cccc(N3CCc4c(nc(OCC5(CN(C)C)CC5)nc4NCCc4nncn4C(C)C)C3)c12 [Example 571] : is its IC50 strictly below 20 nM?
Not satisfied

Strictly below 20 nM: is that where IC50 of CCc1c(F)ccc2cc(O)cc(N3CCc4c(nc(OC[C@@]56CCCN5C[C@H](F)C6)nc4NCc4cc(C(=O)N(C)C)nn4C)C3)c12 [Example 399] sits?
Satisfied

Dear colleague, could you confirm whether IC50 of CCc1cccc2cccc(N3CCc4c(nc(OCC5(CN(C)C)CC5)nc4N4CCCN(CC(F)(F)F)CC4)C3)c12 [Example 684] falls below 20 nM? Thanks.
Not satisfied

Find out if reported IC50 for CCc1cccc2cccc(N3CCc4c(nc(OCC5(CN(C)C)CC5)nc4N4CCn5nnc(CO)c5C4)C3)c12 [Example 517] is less than 20 nM
Not satisfied

Consider the molecule CCc1c(F)ccc2cc(O)cc(N3CCc4c(nc(OC[C@]56CCCN5[C@H](COC(=O)N(C)C)CC6)nc4N4CCCn5nc(C(=O)N(C)C)cc5C4)C3)c12 [Example 586] . Is its IC50 strictly less than 20 nM?
Satisfied

Find out if reported IC50 for CCc1c(F)ccc2cc(O)cc(N3CCc4c(nc(OC[C@@]56CCCN5C[C@H](F)C6)nc4N4CCCn5nc(C(=O)N(C)C6CC6)cc5C4)C3)c12 [Example 383] is less than 20 nM
Satisfied

Decide: IC50 of CCc1c(F)ccc2cc(O)cc(N3CCc4c(nc(OC[C@@]56CCCN5C[C@H](F)C6)nc4N4CCCn5nc(C(=O)N6C[C@@H](C)N[C@@H](C)C6)cc5C4)C3)c12 [Example 303] strictly below 20 nM?
Satisfied

Dear colleague, could you confirm whether IC50 of CCc1c(F)ccc2cc(O)cc(N3CCc4c(nc(OC[C@@]56CCCN5C[C@H](F)C6)nc4N4CCCn5nc6c(c5C4)CCCN(C)C6=O)C3)c12 [Example 409] falls below 20 nM? Thanks.
Satisfied

Please determine if CCc1c(F)ccc2cc(O)cc(N3CCc4c(nc(OC[C@@]56CCCN5C[C@H](F)C6)nc4N4CCCn5nc(NC)c(C)c5C4)C3)c12 [Example 376] is below 20 nM in terms of IC50.
Satisfied

Lab log: compare recorded IC50 with 20 nM; is it strictly lower for CCc1c(F)ccc2cc(O)cc(N3CCc4c(nc(OC[C@@]56CCCN5C[C@H](F)C6)nc4N4CCCn5nc(CNC(=O)N(C)C)cc5C4)C3)c12 [Example 354] ?
Satisfied

Lab note: IC50 threshold 20 nM. Does this molecule come in strictly under it? CCc1c(F)ccc2cc(O)cc(N3CCc4c(nc(OCC5(CN(C)C)CC5)nc4N4CCCn5nncc5C4)C3)c12 [Example 430]
Satisfied

Given CCc1cccc2cccc(N3CCc4c(nc(OCC5(CN(C)C)CC5)nc4N4CCn5nncc5C4)C3)c12 [Example 665] , is recorded IC50 strictly lower than 20 nM?
Not satisfied

Problem: For the molecule CCCCCCCCCCN(C)C(=O)c1cc2n(n1)CCCN(c1nc(OC[C@@]34CCCN3C[C@H](F)C4)nc3c1CCN(c1cc(O)cc4ccc(F)c(CC)c14)C3)C2 [Example 266] , is IC50 under 20 nM?
Not satisfied

Dear reviewer, please state whether C=C1CN2CCCC2(COc2nc3c(c(N4CCC[C@@](C)(O)C4)n2)CCN(c2cc(O)cc4ccc(F)c(CC)c24)C3)C1 (stereo partly drawn) [Example 580] has IC50 strictly beneath 20 nM.
Satisfied

IC50 under 20 nM? Item: Cc1cc2[nH]ncc2c(N2CCc3c(nc(OCC45CCCN4CCC5)nc3N3CCCC4(CNS(=O)(=O)N4)C3)C2)c1C (stereo not drawn) [Example 452]
Satisfied

Please indicate whether the reported IC50 of CCc1c(F)ccc2cc(O)cc(N3CCc4c(nc(OC[C@@]56CCCN5C[C@H](F)C6)nc4N4CCCn5nc(C(=O)N6CC7CC6CN7)cc5C4)C3)c12 (stereo partly drawn) [Example 502] is strictly below 20 nM.
Satisfied

hey, is IC50 for CCc1c(F)ccc2cc(O)cc(N3CCc4c(nc(OC[C@@]56CCCN5C[C@H](F)C6)nc4N4CCCC5(CSC5)C4)C3)c12 [Example 421] lower than 20 nM or not?
Satisfied

Lab note: IC50 threshold 20 nM. Does this molecule come in strictly under it? CCc1c(F)ccc2cc(O)cc(N3CCc4c(nc(OC[C@@]56CCCN5C[C@H](F)C6)nc4N4CCCn5nc(C(=O)N6C7CCCC6CC7)cc5C4)C3)c12 [Example 341]
Satisfied

Hello, the source for this data is patent US20250368649A1, in case you need it.
